target: recombinant human leukotriene A4 hydrolase enzyme (Homo sapiens); construct: purchased Cayman Chemical 10007817; assay: Amino-peptidase assay, PGP; format: biochemical; conditions: concentration not given
Sequence (P09960 whole entry): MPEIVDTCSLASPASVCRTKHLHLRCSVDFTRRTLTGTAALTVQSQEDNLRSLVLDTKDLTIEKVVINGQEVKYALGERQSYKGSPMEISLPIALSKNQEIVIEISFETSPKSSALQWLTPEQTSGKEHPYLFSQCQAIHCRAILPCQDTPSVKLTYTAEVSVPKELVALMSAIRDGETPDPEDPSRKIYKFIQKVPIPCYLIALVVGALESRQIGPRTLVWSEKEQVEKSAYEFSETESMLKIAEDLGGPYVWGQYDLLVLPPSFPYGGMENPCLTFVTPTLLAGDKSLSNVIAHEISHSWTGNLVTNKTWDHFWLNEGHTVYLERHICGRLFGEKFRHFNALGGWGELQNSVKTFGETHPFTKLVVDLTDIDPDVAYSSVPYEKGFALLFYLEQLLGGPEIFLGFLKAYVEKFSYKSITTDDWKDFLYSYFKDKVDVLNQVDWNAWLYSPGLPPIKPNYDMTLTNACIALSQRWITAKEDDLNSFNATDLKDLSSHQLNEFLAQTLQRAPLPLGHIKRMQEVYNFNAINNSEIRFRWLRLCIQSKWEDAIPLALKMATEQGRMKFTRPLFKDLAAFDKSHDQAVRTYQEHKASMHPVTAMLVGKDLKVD
Each entry below lists one item and its recorded % Inhibition aminopeptidase-PGP activity of LTA4H value.

Some entries whose results are on file:
{"columns": ["COMPOUND", "MEASURED ON", "RESULT"],
 "data": [
  ["CCC(=O)CCc1ccc(Oc2nc3ccccc3s2)c(F)c1 [Compound 152]", "recombinant human leukotriene A4 hydrolase enzyme (Homo sapiens)", "25-50%"],
  ["CC(O)(CCc1ccc(Oc2nc3ccccc3o2)cc1)c1ccccc1 (centres unmarked) [Compound 147]", "recombinant human leukotriene A4 hydrolase enzyme (Homo sapiens)", "25-50%"],
  ["CC(CCc1ccc(OCc2ccc3ccccc3n2)cc1)N1CCCC1 (centres unmarked) [Compound 190]", "recombinant human leukotriene A4 hydrolase enzyme (Homo sapiens)", "25-50%"],
  ["CCC(O)CCc1ccc(Oc2nc3ccccc3s2)c(OC2CCCC2)c1 (centres unmarked) [Compound 186]", "recombinant human leukotriene A4 hydrolase enzyme (Homo sapiens)", ">75%"],
  ["CCC(O)(CCc1ccc(Oc2nc3ccccc3s2)cc1)C(F)(F)F (centres unmarked) [Compound 150]", "recombinant human leukotriene A4 hydrolase enzyme (Homo sapiens)", "<25%"],
  ["CNC(c1ccc(Oc2nc3ccccc3s2)cc1)C(F)(F)F (centres unmarked) [Compound 178]", "recombinant human leukotriene A4 hydrolase enzyme (Homo sapiens)", "70-90%"],
  ["CCC(=O)CCc1ccc(Oc2nc3ccccc3s2)c(OC(C)C)c1 [Compound 112]", "recombinant human leukotriene A4 hydrolase enzyme (Homo sapiens)", "<25%"],
  ["CCC(O)CCc1ccc(Oc2nc3ccccc3s2)c(OCC2CC2)c1 (centres unmarked) [Compound 187]", "recombinant human leukotriene A4 hydrolase enzyme (Homo sapiens)", "50-75%"],
  ["CC(O)(CCc1ccc(OCc2ccc3ccccc3n2)cc1)C(F)(F)F (centres unmarked) [Compound 183]", "recombinant human leukotriene A4 hydrolase enzyme (Homo sapiens)", ">75%"],
  ["OC(c1ccc(Oc2nc3c(F)cc(F)cc3s2)cc1)C(F)(F)F (centres unmarked) [Compound 179]", "recombinant human leukotriene A4 hydrolase enzyme (Homo sapiens)", ">75%"]
]}

Incoming: Field request: % Inhibition aminopeptidase-PGP activity of LTA4H | item: CCC(=O)CCc1ccc(Oc2nc3ccccc3s2)c(Cl)c1 [Compound 149]
Outgoing: 25-50%

Incoming: Query CC(O)(c1ccc(Oc2nc3c(F)cc(F)cc3s2)cc1)C(F)(F)F (centres unmarked) [Compound 181] next
Outgoing: >75%

Incoming: What would you report for COc1cc(CCC(C)(O)C(F)(F)F)ccc1OCc1ccc2ccccc2n1 (centres unmarked) [Compound 184] ?
Outgoing: 25-50%

Incoming: Moving on to CCC(CCc1ccc(Oc2nc3ccccc3s2)c(OC)c1)N1CCN(C)CC1 (centres unmarked) [Compound 188]
Outgoing: 25-50%

These data points were gathered from patent US12686668B2.
